# measurement-target: T1, soluble human CD40 extracellular domain (human, UniProt P25942 21-193)
# T1 construct: Produced in house; also called hCD40; soluble hCD40 extracellular domain
# T1 sequence (P25942 21-193 limits assumed): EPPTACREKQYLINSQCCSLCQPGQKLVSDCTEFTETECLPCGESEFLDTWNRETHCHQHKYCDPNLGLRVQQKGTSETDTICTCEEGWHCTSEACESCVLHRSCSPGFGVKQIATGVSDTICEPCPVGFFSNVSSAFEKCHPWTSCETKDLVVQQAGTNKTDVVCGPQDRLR
# experimental-details: SPR, antibody captured from supernatant on protein A chip, soluble hCD40 ECD at 5 and 50 nM (summary table of the 16 chosen antibodies)
Listed below: Kd values for each entry.
Number only, in nM; omit the unit.

binder	measurement-unit	Kd
M47 (HC-R67Q / LC-K45E) (antibody, human IgG1, kappa, V domains shown, IgG1-P238K; also called HC15/LC3) VH: QVQLVQSGAEVKKPGSSVKVSCKASGYAFTSYWMHWVRQAPGQGLEWMGQINPTTGRSQYNEKFKTQVTITADKSTSTAYMELSSLRSEDTAVYYCARWGLQPFAYWGQGTLVTVSS VL: DIQMTQSPSFLSASVGDRVTITCKASQDVSTAVAWYQQKPGKAPELLIYSASYRYTGVPSRFSGSGSGTDFTLTISSLQPEDFATYYCQQHYSTPWTFGGGTKVEIKR	nM	3.2

Please report the recorded Kd for M80 (HC-K63Q / LC-R61Q) (antibody, human IgG1, kappa, V domains shown, IgG1-P238K; also called HC16/LC5) VH: QVQLVQSGAEVKKPGSSVKVSCKASGYAFTSYWMHWVRQAPGQGLEWMGQINPTTGRSQYNEQFKTRVTITADKSTSTAYMELSSLRSEDTAVYYCARWGLQPFAYWGQGTLVTVSS VL: DIQMTQSPSFLSASVGDRVTITCKASQDVSTAVAWYQQKPGKAPKLLIYSASYRYTGVPSQFSGSGSGTDFTLTISSLQPEDFATYYCQQHYSTPWTFGGGTKVEIKR .
4.1

Now try M38 (HC-K12V,K19S,K23A / LC-K45E) (antibody, human IgG1, kappa, V domains shown, IgG1-P238K; also called HC6/LC3) VH: QVQLVQSGAEVVKPGSSVSVSCAASGYAFTSYWMHWVRQAPGQGLEWMGQINPTTGRSQYNEKFKTRVTITADKSTSTAYMELSSLRSEDTAVYYCARWGLQPFAYWGQGTLVTVSS VL: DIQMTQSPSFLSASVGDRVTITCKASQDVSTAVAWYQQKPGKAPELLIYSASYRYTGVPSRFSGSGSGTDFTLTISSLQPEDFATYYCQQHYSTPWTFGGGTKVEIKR .
3.9
